test system: primary chicken neurons; experiment: Inhibition of Abeta 1-42 toxicity on primary chicken neurons (MTT); format: cell-based; parameters: key: No: no effect; +: minor positive effect on cell viability in the presence of aggregated Aβ 1-42; ++: medium positive effect on cell viability in the presence of aggregated Aβ 1-42; +++: strong positive effect on cell viability in the presence of aggregated Aβ 1-42; settings: Conc. 10 μM; 10 μM Aβ1-42 aggregated together with compound for 48 h
Readout: Rescue of Abeta toxicity (MTT)

Some solved entries appear below for comparison.
INSERT INTO results (compound_string, result) VALUES
  ('O=C(O)Cc1cc(-c2ccc(C(=O)O)cc2)sc1-c1ccc(-c2sc(-c3ccc(C(=O)O)cc3)cc2CC(=O)O)s1', '+++'),
  ('O=C(O)Cc1cc(C(=O)c2ccccc2)sc1-c1ccc(-c2sc(C(=O)c3ccccc3)cc2CC(=O)O)s1', '+++'),
  ('CS(=O)(=O)c1ccc(-c2cc(CC(=O)O)c(-c3ccc(-c4sc(-c5ccc(S(C)(=O)=O)cc5)cc4CC(=O)O)s3)s2)cc1', '+++'),
  ('O=C(O)Cc1ccccc1-c1cc(CC(=O)O)c(-c2ccc(-c3sc(-c4ccccc4CC(=O)O)cc3CC(=O)O)s2)s1', '+++'),
  ('O=C(O)Cc1cc(-c2ccccc2)sc1-c1ccc(-c2sc(-c3ccccc3)cc2CC(=O)O)s1', 'no'),
  ('CS(=O)(=O)c1ccc(-c2ccc(-c3sc(-c4cc(CC(=O)O)c(-c5ccc(-c6ccc(S(C)(=O)=O)cc6)s5)s4)cc3CC(=O)O)s2)cc1', '+++');

With those in mind, consider the next compound.
### Prompt For the compound O=C(O)Cc1cc(-c2ccc(-c3ccc(C(=O)O)s3)s2)sc1-c1ccc(-c2sc(-c3ccc(-c4ccc(C(=O)O)s4)s3)cc2CC(=O)O)s1 , what Rescue of Abeta toxicity (MTT) is on record?
### Response no

* * *

target: biotinylated Aβ1-42 (Homo sapiens, UniProt P05067); construct: To assure monomerisation of biotinylated Aβ1-42 (Anaspec #23523-0.5) the peptide was thoroughly monomerised; purchased Anaspec 23523-0.5; assay: Inhibition of Abeta oligomerisation (biotinylated Aβ1-42, neutravidin plate, streptavidin-HRP); type: biochemical; details: inhibition of Aβ1-42 aggregation, approximately 12 nM Aβ1-42, PBS pH 7.4, 2% DMSO, 30 min RT
Sequence (P05067 672-713 limits assumed): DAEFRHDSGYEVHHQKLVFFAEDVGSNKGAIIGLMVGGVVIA
# note: exactly 3 µM is not below, so it is not met; use met for IC50 strictly under it

A selection of reference data follows.
INSERT INTO assay_data (compound, study_target, label_class) VALUES
  ('N#Cc1cccc(-c2cc(CC(=O)O)c(-c3ccc(-c4sc(-c5cccc(C#N)c5)cc4CC(=O)O)s3)s2)c1', 'biotinylated Aβ1-42 (Homo sapiens, UniProt P05067)', 'not met'),
  ('O=C(O)Cc1cc(-c2ccccc2C(=O)O)sc1-c1ccc(-c2sc(-c3ccccc3C(=O)O)cc2CC(=O)O)s1', 'biotinylated Aβ1-42 (Homo sapiens, UniProt P05067)', 'not met'),
  ('CNS(=O)(=O)c1ccc(-c2cc(CC(=O)O)c(-c3ccc(-c4sc(-c5ccc(S(=O)(=O)NC)cc5)cc4CC(=O)O)s3)s2)cc1', 'biotinylated Aβ1-42 (Homo sapiens, UniProt P05067)', 'not met');

Now consider a different compound.
### Prompt Strictly below 3 µM: is that where IC50 of O=C(O)Cc1cc(-c2ccc(-c3cc(CC(=O)O)c(-c4ccc(-c5cccc(C(=O)O)c5)s4)s3)s2)sc1-c1ccc(-c2cccc(C(=O)O)c2)s1 sits?
### Response met
